run_conditions: 343.15 K; 100 kPa; Liquid; capillary rise
observable: interfacial tension (mN/m)
Just the number please, in mN/m, no unit attached.

Prompt: If you can, please state the reported interfacial tension value of CCCCCCCC [octane] + O .
Completion: 47.1

Prompt: If you can, please state the reported interfacial tension value of CCCCCCCO [heptan-1-ol] + O .
Completion: 7.59

Prompt: If you can, please state the reported interfacial tension value of CCCCCCCCC [nonane] + O .
Completion: 47.6

Prompt: If you can, please state the reported interfacial tension value of CCCCCC [hexane] + O .
Completion: 46.2

Prompt: If you can, please state the reported interfacial tension value of CCCCCC(=O)O [hexanoic acid] + O .
Completion: 3.48

###

run_conditions: 333.15 K; 100 kPa; Liquid; capillary rise
For each entry below, report its interfacial tension value.
Just the number please, in mN/m, no unit attached.

Prompt: If you can, please state the reported interfacial tension value of CCCCCCCC [octane] + O .
Completion: 48

Prompt: If you can, please state the reported interfacial tension value of CCCCCC(=O)O [hexanoic acid] + O .
Completion: 4.11

Prompt: If you can, please state the reported interfacial tension value of CCCCCC [hexane] + O .
Completion: 47

Prompt: If you can, please state the reported interfacial tension value of CCCCCCCO [heptan-1-ol] + O .
Completion: 7.64

Hey, just so you know, these numbers are from the NIST ThermoML archive (doi:10.1016/j.fluid.2014.06.018).
